Recorded values, source the supplement of paper PMC6555819.

- Test system: FXR:RXRa (NR concentration 270 nM, RXRa partner concentration 90 nM)
- Assay protocol: PBM binding z-score (relative to random genomic background probes); higher = stronger binding; sequences stand for … in GC…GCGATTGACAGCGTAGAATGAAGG
Kindly supply the reported PBM binding z-score values for the records listed here.
Give bare numbers.

1. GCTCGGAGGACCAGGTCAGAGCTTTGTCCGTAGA: 0.0133

// input: 3 sequences below; output: PBM binding z-score for each
1. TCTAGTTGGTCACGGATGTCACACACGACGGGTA
2. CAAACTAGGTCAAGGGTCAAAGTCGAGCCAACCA
3. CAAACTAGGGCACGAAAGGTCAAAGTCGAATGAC

1. 0.669
2. 7.52
3. 5.64

Take each entry in turn and give its PBM binding z-score.
1. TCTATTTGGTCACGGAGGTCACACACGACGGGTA
2. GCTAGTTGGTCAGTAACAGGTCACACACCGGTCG
3. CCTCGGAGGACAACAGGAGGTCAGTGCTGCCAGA
4. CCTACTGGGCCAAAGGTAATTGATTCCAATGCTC
5. TCTAACAGGCCAGAGGGTCACTCAAGAGGTACGG

3.93
0.984
0.821
-0.451
1.24

Below is a list of sequences. For each, state its recorded PBM binding z-score.
1. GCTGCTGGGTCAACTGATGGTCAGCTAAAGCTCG
2. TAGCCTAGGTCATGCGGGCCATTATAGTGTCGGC
3. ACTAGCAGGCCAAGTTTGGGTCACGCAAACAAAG
4. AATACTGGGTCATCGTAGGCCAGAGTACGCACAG
5. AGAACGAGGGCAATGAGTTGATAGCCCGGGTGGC
6. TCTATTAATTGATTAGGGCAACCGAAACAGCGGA
7. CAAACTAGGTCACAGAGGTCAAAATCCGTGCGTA
8. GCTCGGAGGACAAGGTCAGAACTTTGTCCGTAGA

1. 3.55
2. 4.23
3. 1.01
4. 3.75
5. 0.0897
6. 0.209
7. 7.3
8. 1.86

###

- Tested on: RXRa DBDmut IVT, anti-RXR (DBD mutation: RXRa K156A/R161A, NR concentration 90 nM)
- Assay protocol: PBM binding z-score (relative to random genomic background probes); higher = stronger binding; sequences stand for … in GC…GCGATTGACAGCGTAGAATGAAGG
Experimental readout: PBM binding z-score
Numbers only.

Need PBM binding z-score for each of these sequences.
1. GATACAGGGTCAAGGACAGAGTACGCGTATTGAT
2. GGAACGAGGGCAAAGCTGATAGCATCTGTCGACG
3. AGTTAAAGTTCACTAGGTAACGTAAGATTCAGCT
4. CCGACTGGGACAAGGTTACCATAACGCACAGCCA
5. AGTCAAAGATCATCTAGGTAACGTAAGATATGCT

2.36
2.13
3.86
-0.018
-0.336

# return PBM binding z-score for each item in the list
1. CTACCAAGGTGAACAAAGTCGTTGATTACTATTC
2. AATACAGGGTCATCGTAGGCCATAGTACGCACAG
3. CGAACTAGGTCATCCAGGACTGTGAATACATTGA

0.695
3.55
2.26

Kindly give each listed record's PBM binding z-score.
1. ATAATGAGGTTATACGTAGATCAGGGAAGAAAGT
2. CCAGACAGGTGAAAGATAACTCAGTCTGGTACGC
3. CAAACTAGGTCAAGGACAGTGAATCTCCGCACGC

1. 2.1
2. 0.193
3. 1.7

###

- System: RARg homodimer (NR concentration 270 nM)
- Assay protocol: PBM binding z-score (relative to random genomic background probes); higher = stronger binding; sequences stand for … in GC…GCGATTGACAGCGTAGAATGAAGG
Experimental readout: PBM binding z-score
Numbers only.

1) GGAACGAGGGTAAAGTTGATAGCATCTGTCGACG: 0.562

Please state, for each entry, its recorded PBM binding z-score.
1. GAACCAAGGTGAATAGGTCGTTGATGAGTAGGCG
2. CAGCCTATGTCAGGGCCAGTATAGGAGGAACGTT
3. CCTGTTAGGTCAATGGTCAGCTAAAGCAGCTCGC
4. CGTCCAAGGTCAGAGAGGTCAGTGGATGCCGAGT

1: 1.25; 2: 0.219; 3: 4.93; 4: 7.05

###

- Test system: LXRb homodimer (NR concentration 270 nM)
- Assay protocol: PBM binding z-score (relative to random genomic background probes); higher = stronger binding; sequences stand for … in GC…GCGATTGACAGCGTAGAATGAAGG
Experimental readout: PBM binding z-score
Answers are plain numbers.

1) CCAGACAGGTGAGAAGTTAACTCAGCCTCGATTA: -0.306
2) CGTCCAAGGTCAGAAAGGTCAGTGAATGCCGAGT: 0.524
3) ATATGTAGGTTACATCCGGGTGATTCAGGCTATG: 0.268

# map each sequence to its PBM binding z-score
1. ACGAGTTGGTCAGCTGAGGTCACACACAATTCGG
2. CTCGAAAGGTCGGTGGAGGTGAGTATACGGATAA
3. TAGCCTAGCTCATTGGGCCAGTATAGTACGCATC
4. GCATATAGGTAAGACAAGGTGAAAGTCCGATTGT
5. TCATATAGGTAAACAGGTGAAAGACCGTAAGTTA
6. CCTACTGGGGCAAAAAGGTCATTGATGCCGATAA
7. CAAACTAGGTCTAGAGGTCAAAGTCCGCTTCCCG

1: -0.229; 2: -0.0636; 3: -0.9; 4: -0.674; 5: -0.084; 6: 0.284; 7: 1.55

###

- Test system: LXRb homodimer (NR concentration 270 nM)
- Assay protocol: PBM binding z-score (relative to random genomic background probes); higher = stronger binding; sequences stand for … in GC…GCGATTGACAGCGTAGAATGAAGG
PBM binding z-score vs -0.4: at or above is Met, below is Not met.

Look over these answered cases.
1. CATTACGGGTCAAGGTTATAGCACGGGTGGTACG: Met
2. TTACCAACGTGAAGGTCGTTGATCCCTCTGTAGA: Met

Is PBM binding z-score at least -0.4? Consider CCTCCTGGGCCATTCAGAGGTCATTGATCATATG
Met

###

- Test system: PPARg:RXRa IVT, anti-PPARg (NR concentration 270 nM, RXRa partner concentration 90 nM)
- Assay protocol: PBM binding z-score (relative to random genomic background probes); higher = stronger binding; sequences stand for … in GC…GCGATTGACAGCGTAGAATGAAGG
Experimental readout: PBM binding z-score
Numbers only.

Completed entries (count: 8):
1. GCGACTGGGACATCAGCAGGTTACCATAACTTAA: 1.18
2. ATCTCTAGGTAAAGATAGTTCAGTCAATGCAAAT: 1.73
3. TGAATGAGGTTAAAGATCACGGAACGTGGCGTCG: 3.53
4. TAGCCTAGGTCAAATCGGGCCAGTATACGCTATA: 3
5. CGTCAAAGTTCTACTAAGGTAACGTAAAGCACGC: 0.848
6. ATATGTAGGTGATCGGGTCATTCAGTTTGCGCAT: 7.11
7. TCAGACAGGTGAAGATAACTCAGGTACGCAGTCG: 0.984
8. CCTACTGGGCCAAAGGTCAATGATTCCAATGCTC: 6.73

Dear reader, for each entry below, please note its PBM binding z-score.
1. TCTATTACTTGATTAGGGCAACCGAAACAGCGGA
2. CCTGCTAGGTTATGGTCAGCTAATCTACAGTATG
3. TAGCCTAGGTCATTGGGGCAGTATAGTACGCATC
4. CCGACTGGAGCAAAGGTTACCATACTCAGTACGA
5. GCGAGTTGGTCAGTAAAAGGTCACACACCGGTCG
6. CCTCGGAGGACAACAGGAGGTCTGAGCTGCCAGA
7. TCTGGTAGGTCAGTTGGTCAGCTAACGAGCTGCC

[1.45, 0.468, 4.45, 3.51, 2.26, -0.71, 4.52]

Consider the following items and state reported PBM binding z-score for each.
1. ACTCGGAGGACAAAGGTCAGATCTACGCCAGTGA
2. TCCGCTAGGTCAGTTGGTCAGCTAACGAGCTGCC
3. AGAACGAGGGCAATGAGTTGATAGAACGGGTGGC
4. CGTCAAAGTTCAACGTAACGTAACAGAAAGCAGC
5. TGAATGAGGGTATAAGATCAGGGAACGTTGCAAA
6. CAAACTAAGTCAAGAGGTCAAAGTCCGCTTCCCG
7. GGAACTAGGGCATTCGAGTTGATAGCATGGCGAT
8. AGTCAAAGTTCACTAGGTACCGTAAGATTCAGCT

3.13
2.55
2.76
1.76
0.573
3.45
7.05
3.48
